Reference source for all entries: patent US9040565B2

Item-by-item account of inhibition at 10 µM
target: recombinant human mPGES-1 (Homo sapiens); construct: made in house; host or cells: Rosetta E. coli (microsomal/membrane fraction); assay: mPGES-1 inhibition, HTRF detection of PGE2 (Biological Test); assay type: biochemical
The answer is to be given in %; state only the numeric part.

Examples with their reported inhibition at 10 µM follow.
{"compound": "CCOc1cc2c(cc1C(=O)NC1CCC(C)(C)CC1)nc(Nc1c(Cl)cncc1Cl)n2C [Example 670]", "tested-target": "recombinant human mPGES-1 (Homo sapiens)", "recorded-endpoint": "inhibition at 10 µM", "value-observed": 100}
{"compound": "Cc1cnccc1Nc1nc2cc(C(=O)Nc3ccc(Br)cc3)ccc2n1C [Example 567]", "tested-target": "recombinant human mPGES-1 (Homo sapiens)", "recorded-endpoint": "inhibition at 10 µM", "value-observed": 80}
{"compound": "CCOc1cc2[nH]c(Nc3c(Cl)cncc3Cl)nc2cc1C(=O)Nc1cc(C(F)(F)F)ccn1 [Example 694]", "tested-target": "recombinant human mPGES-1 (Homo sapiens)", "recorded-endpoint": "inhibition at 10 µM", "value-observed": 98}
{"compound": "Cn1c(Nc2c(Cl)cncc2Cl)nc2cc(C(=O)NCc3ccccc3C(F)(F)F)ccc21 [Example 467]", "tested-target": "recombinant human mPGES-1 (Homo sapiens)", "recorded-endpoint": "inhibition at 10 µM", "value-observed": 96}

Task item: Consider the compound shown here: CCOc1cc2[nH]c(Nc3c(Cl)cncc3Cl)nc2cc1C(=O)NCc1ccccc1C(F)(F)F [Example 689] What is its recorded inhibition at 10 µM?
Reply: 100

Task item: Consider the compound shown here: COc1cc2[nH]c(Nc3c(Cl)cncc3Cl)nc2cc1C(=O)Nc1ccc(C2CC2)cn1 [Example 684] What is its recorded inhibition at 10 µM?
Reply: 98

Task item: Consider the compound shown here: COCCOc1cc2c(cc1C(=O)NC1CCC(C)(C)CC1)nc(Nc1c(Cl)cncc1Cl)n2C [Example 671] What is its recorded inhibition at 10 µM?
Reply: 100

Task item: Consider the compound shown here: CN(C)c1cc(C(F)(F)F)cc(NC(=O)c2cc3nc(Nc4c(Cl)cncc4Cl)[nH]c3cc2OCC(F)(F)F)n1 [Example 656] What is its recorded inhibition at 10 µM?
Reply: 96

Task item: Consider the compound shown here: Cn1c(Nc2c(Cl)cncc2Cl)nc2cc(C(=O)Nc3ccc(Br)cc3)c(OCCN3CCCC3=O)cc21 [Example 664] What is its recorded inhibition at 10 µM?
Reply: 99

Task item: Consider the compound shown here: CCOc1cc2[nH]c(Nc3c(Cl)cncc3Cl)nc2cc1C(=O)Nc1cccc(C(F)F)n1 [Example 698] What is its recorded inhibition at 10 µM?
Reply: 99

Task item: Consider the compound shown here: CC1(C)CCC(NC(=O)c2ccc3nc(Nc4c(Cl)cncc4Cl)[nH]c3c2)CC1 [Example 409] What is its recorded inhibition at 10 µM?
Reply: 100

====

Biological target: recombinant human mPGES-1 (Homo sapiens)
Construct: made in house; host or cells: Rosetta E. coli (microsomal/membrane fraction)
Sequence (O14684 1-152): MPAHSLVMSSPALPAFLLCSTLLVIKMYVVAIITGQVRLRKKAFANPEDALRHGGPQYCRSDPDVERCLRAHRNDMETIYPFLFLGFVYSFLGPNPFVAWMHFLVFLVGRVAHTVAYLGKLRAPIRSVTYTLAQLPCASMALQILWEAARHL
Assay: mPGES-1 inhibition, HTRF detection of PGE2 (Biological Test)
Assay type: biochemical
recorded-endpoint: inhibition at 10 µM (%)
The answer is to be given in %; state only the numeric part.

Examples with their reported inhibition at 10 µM follow.
{"compound": "O=C(Nc1ccc(Br)cc1)c1ccc2nc(Nc3c(Cl)cncc3Cl)[nH]c2c1 [Example 388]", "unit-tag": "%", "value-observed": 100}
{"compound": "O=C(Nc1ccc(Br)cc1)c1ccc2[nH]c(Nc3ccncc3Cl)nc2c1 [Example 566]", "unit-tag": "%", "value-observed": 77}

Task item: Observed inhibition at 10 µM on recombinant human mPGES-1 (Homo sapiens) for O=C(Nc1ccc(Br)cc1)c1cc2nc(Nc3c(Cl)cncc3Cl)[nH]c2cc1OC(F)F [Example 703] , please.
Reply: 98

Task item: Observed inhibition at 10 µM on recombinant human mPGES-1 (Homo sapiens) for COCCOc1cc2[nH]c(Nc3c(Cl)cncc3Cl)nc2cc1C(=O)Nc1ccc(Br)cc1 [Example 685] , please.
Reply: 98

====

Item-by-item account of inhibition at 10 µM
biological target: recombinant human mPGES-1 (Homo sapiens, UniProt O14684); construct: made in house; host or cells: Rosetta E. coli (microsomal/membrane fraction); test: mPGES-1 inhibition, HTRF detection of PGE2 (Biological Test); assay type: biochemical
The answer is to be given in %; state only the numeric part.

Task item: Consider the compound shown here: CCOc1cc2[nH]c(Nc3c(Cl)cncc3Cl)nc2cc1C(=O)NCC(F)(F)C(F)(F)C(F)(F)C(F)(F)F [Example 691] What is its recorded inhibition at 10 µM?
Reply: 97

Task item: Consider the compound shown here: Cn1c(Nc2c(Cl)cncc2Cl)nc2cc(C(=O)NC3CCC(C)(C)CC3)ccc21 [Example 435] What is its recorded inhibition at 10 µM?
Reply: 100

Task item: Consider the compound shown here: O=C(N[C@H]1CC[C@H](C(F)(F)F)CC1)c1cc2nc(Nc3c(Cl)cncc3Cl)[nH]c2cc1OCCF [Example 677] What is its recorded inhibition at 10 µM?
Reply: 100

Task item: Consider the compound shown here: O=C(Nc1ccc(F)c(C(F)F)n1)c1cc2nc(Nc3c(Cl)cncc3Cl)[nH]c2cc1OCC(F)(F)F [Example 707] What is its recorded inhibition at 10 µM?
Reply: 100

Task item: Consider the compound shown here: O=C(NCC(F)(F)C(F)(F)C(F)(F)C(F)(F)F)c1cc2nc(Nc3ncc(Cl)cc3Cl)[nH]c2cc1OC(F)F [Example 700] What is its recorded inhibition at 10 µM?
Reply: 98

Task item: Consider the compound shown here: CCOc1cc2c(cc1C(=O)NCc1ncccc1C(F)(F)F)nc(Nc1c(Cl)cncc1Cl)n2C [Example 668] What is its recorded inhibition at 10 µM?
Reply: 100

====

molecular target: recombinant human mPGES-1 (Homo sapiens); construct: made in house; host or cells: Rosetta E. coli (microsomal/membrane fraction); assay: mPGES-1 inhibition, HTRF detection of PGE2 (Biological Test); type: biochemical
Item-by-item account of inhibition at 10 µM
The answer is to be given in %; state only the numeric part.

Task item: Consider the compound shown here: O=C(Nc1ccc(Br)cc1)c1cc2nc(Nc3c(Cl)cncc3Cl)[nH]c2cc1OCC(F)(F)F [Example 676] What is its recorded inhibition at 10 µM?
Reply: 100

Task item: Consider the compound shown here: Cc1ccnc(Cl)c1Nc1nc2ccc(C(=O)Nc3cccc(Cl)c3)cc2[nH]1 [Example 521] What is its recorded inhibition at 10 µM?
Reply: 95

Task item: Consider the compound shown here: O=C(Nc1cc(C(F)(F)F)ccn1)c1cc2nc(Nc3c(Cl)cncc3Cl)[nH]c2cc1OC(F)F [Example 702] What is its recorded inhibition at 10 µM?
Reply: 95

Task item: Consider the compound shown here: O=C(Nc1cccc(C(F)F)n1)c1cc2nc(Nc3c(Cl)cncc3Cl)[nH]c2cc1OCC(F)(F)F [Example 708] What is its recorded inhibition at 10 µM?
Reply: 100

====

Target: recombinant human mPGES-1 (Homo sapiens)
Construct: made in house; host or cells: Rosetta E. coli (microsomal/membrane fraction)
Experiment: mPGES-1 inhibition, HTRF detection of PGE2 (Biological Test)
Assay type: biochemical
Method: Microsomes from Rosetta E. coli bacteria expressing recombinant human mPGES-1 is dissolved in 0.1 M KPi pH 7.4 buffer containing 2.5 mM GSH. 50 μl of the enzyme is subsequently dispensed in a 384-well plate. […] After over night incubation the fluorescence is measured by the use of an appropriate microplate reader. […] The extent of the specific FRET is measured as a ratio of the emission intensity at 665 nm vs. that at 620 nm. […]
recorded-endpoint: inhibition at 10 µM
Give the value; after it, write the unit.

Examples with their reported inhibition at 10 µM follow.
{"molecule": "CCOc1cc2[nH]c(Nc3c(Cl)cncc3Cl)nc2cc1C(=O)NC1CCC(C)(C)CC1 [Example 669]", "tested-target": "recombinant human mPGES-1 (Homo sapiens)", "inhibition at 10 µM": "100%"}
{"molecule": "CC(F)(F)c1cccc(NC(=O)c2cc3nc(Nc4c(Cl)cncc4Cl)[nH]c3cc2OCC(F)(F)F)n1 [Example 706]", "tested-target": "recombinant human mPGES-1 (Homo sapiens)", "inhibition at 10 µM": "100%"}
{"molecule": "CCOc1cc2[nH]c(Nc3c(Cl)cncc3Cl)nc2cc1C(=O)NCc1ncccc1Cl [Example 693]", "tested-target": "recombinant human mPGES-1 (Homo sapiens)", "inhibition at 10 µM": "97%"}
{"molecule": "O=C(N[C@H]1CC[C@H](C(F)(F)F)CC1)c1cc2nc(Nc3c(Cl)cncc3Cl)[nH]c2cc1OC(F)F [Example 701]", "tested-target": "recombinant human mPGES-1 (Homo sapiens)", "inhibition at 10 µM": "100%"}
{"molecule": "Cn1c(Nc2c(Cl)cncc2Cl)nc2cc(C(=O)NC3CCC(C)(C)CC3)c(F)cc21 [Example 674]", "tested-target": "recombinant human mPGES-1 (Homo sapiens)", "inhibition at 10 µM": "100%"}
{"molecule": "Cn1c(Nc2ccncc2Cl)nc2cc(C(=O)Nc3ccc(Br)cc3)ccc21 [Example 520]", "tested-target": "recombinant human mPGES-1 (Homo sapiens)", "inhibition at 10 µM": "97%"}
{"molecule": "CC1(C)CCC(NC(=O)c2ccc3[nH]c(Nc4c(Cl)cncc4Cl)nc3c2)CC1 [Example 446]", "tested-target": "recombinant human mPGES-1 (Homo sapiens)", "inhibition at 10 µM": "100%"}
{"molecule": "COCCOc1cc2[nH]c(Nc3c(Cl)cncc3Cl)nc2cc1C(=O)NCc1ncccc1C(F)(F)F [Example 686]", "tested-target": "recombinant human mPGES-1 (Homo sapiens)", "inhibition at 10 µM": "99%"}
{"molecule": "O=C(Nc1ccc(Br)cc1)c1cc2nc(Nc3c(Cl)cncc3Cl)[nH]c2cc1OCCF [Example 678]", "tested-target": "recombinant human mPGES-1 (Homo sapiens)", "inhibition at 10 µM": "100%"}
{"molecule": "O=C(Nc1ccc(Br)cc1)c1cc2nc(Nc3c(Cl)cncc3Cl)[nH]c2cc1OC1CCOC1 (stereo not shown) [Example 659]", "tested-target": "recombinant human mPGES-1 (Homo sapiens)", "inhibition at 10 µM": "98%"}

Task item: Consider the molecule shown here: CC1(C)CCC(NC(=O)c2cc3nc(Nc4c(Cl)cncc4Cl)[nH]c3cc2F)CC1 [Example 673] What is its recorded inhibition at 10 µM?
Reply: 100%

Task item: Consider the molecule shown here: CN(C)CCOc1cc2[nH]c(Nc3c(Cl)cncc3Cl)nc2cc1C(=O)Nc1ccc(Br)cc1 [Example 687] What is its recorded inhibition at 10 µM?
Reply: 96%
